test: In vivo pharmacokinetics in mice; conditions: male, BALB/c, mouse, plasma, po, 3 mg/kg

[
  {
    "Compound": "C=CC(=O)N1CC2CC(n3nc(-c4ccc(C(=O)Nc5ccccn5)cc4)c4c(N)ncnc43)CC2C1 (stereo not shown) [ZYBT1]",
    "Value units": "ng·h/mL",
    "AUC": 590
  }
]

====

Target sequence: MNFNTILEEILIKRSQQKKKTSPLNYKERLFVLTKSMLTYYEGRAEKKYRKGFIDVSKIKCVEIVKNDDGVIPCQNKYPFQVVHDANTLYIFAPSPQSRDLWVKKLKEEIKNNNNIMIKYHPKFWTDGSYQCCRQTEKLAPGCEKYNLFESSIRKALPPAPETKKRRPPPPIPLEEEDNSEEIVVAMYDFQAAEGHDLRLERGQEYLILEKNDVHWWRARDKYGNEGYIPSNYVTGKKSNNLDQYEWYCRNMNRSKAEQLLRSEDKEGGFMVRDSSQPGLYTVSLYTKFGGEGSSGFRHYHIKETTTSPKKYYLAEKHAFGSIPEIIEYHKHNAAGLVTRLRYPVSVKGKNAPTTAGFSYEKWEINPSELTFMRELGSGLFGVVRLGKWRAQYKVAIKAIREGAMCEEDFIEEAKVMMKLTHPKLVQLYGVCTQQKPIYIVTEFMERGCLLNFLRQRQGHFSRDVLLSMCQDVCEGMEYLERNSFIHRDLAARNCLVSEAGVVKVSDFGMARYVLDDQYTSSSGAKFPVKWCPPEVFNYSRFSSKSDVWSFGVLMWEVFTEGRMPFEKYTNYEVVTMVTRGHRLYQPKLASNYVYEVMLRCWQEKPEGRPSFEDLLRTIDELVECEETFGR
pIC50: −log10 of the molar value.

[
  {
    "Compound": "C=CC(=O)N1CC2CC(n3nc(-c4ccc(C(=O)Nc5ccccn5)cc4)c4c(N)ncnc43)CC2C1 (stereo not shown)",
    "pIC50": 7.42
  }
]

====

test system: IL‐6 secretion; assay: Cytokine ELISA, IL‐6 secretion in TMD8 cells; conditions: read-out: IC50 IL‐6 secretion, TMD‐8 cells, 16 hours

[
  {
    "Compound": "C=CC(=O)N1CC2CC(n3nc(-c4ccc(C(=O)Nc5ccccn5)cc4)c4c(N)ncnc43)CC2C1 (stereo not shown)",
    "IC50, pM": 400
  }
]

====

biological target: UniProt:P33261
Sequence (P33261 whole entry): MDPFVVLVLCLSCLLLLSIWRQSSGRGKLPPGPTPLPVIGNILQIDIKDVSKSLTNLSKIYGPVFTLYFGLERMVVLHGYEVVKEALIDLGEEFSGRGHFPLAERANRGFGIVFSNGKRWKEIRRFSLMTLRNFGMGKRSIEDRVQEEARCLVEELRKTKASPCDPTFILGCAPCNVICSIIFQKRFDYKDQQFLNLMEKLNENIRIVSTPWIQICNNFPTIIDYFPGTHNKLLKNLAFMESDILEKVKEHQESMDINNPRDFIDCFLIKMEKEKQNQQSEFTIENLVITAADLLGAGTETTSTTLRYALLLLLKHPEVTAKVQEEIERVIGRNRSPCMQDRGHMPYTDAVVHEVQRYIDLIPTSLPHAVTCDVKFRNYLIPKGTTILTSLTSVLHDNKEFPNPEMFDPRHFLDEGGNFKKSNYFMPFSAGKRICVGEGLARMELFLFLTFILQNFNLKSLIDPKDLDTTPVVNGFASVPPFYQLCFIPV

[
  {
    "Molecule": "C=CC(=O)N1CC2CC(n3nc(-c4ccc(C(=O)Nc5ccccn5)cc4)c4c(N)ncnc43)CC2C1 (stereo not shown) [ZYBT1]",
    "IC50": "> 30 µM"
  }
]

====

test: In vivo pharmacokinetics in rats; set-up: species or system male Wistar rats; conditions: male, Wistar, rat, plasma, po, 3 mg/kg
Quantity: half-life

[
  {
    "Molecule": "C=CC(=O)N1CC2CC(n3nc(-c4ccc(C(=O)Nc5ccccn5)cc4)c4c(N)ncnc43)CC2C1 (stereo not shown) [ZYBT1]",
    "Value reported": "2.2 h"
  }
]

====

target: BTK (Homo sapiens); experiment: Fluorescence competition binding assay
Sequence (Q06187 whole entry): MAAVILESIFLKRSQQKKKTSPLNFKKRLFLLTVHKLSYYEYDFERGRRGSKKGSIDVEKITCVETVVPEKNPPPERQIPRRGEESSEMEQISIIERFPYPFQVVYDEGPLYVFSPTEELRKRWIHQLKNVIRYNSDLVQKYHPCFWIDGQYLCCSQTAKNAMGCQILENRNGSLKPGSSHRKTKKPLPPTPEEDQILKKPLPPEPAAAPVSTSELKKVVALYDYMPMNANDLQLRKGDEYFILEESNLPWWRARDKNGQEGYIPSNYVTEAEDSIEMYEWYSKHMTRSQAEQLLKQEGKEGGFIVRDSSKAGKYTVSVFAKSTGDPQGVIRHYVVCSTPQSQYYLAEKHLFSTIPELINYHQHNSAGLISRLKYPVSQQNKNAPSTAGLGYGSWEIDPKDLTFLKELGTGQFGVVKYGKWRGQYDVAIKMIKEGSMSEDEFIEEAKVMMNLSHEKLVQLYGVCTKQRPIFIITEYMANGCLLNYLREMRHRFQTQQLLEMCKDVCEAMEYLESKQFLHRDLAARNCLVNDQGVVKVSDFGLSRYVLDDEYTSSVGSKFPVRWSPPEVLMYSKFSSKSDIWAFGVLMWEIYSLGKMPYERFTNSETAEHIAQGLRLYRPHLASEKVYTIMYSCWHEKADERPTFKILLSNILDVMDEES
pIC50: −log10 of the molar value.

[
  {
    "Compound": "C=CC(=O)N1CC2CC(n3nc(-c4ccc(C(=O)Nc5ccccn5)cc4)c4c(N)ncnc43)CC2C1 (stereo not shown)",
    "pIC50": 9.00
  }
]
